assay: Biodistribution of the 99mTc(N) heterocomplexes in rats (organ uptake, heart accumulation, heart/lung and heart/liver ratios)
Assay type: in vivo, female Sprague-Dawley rats
run-parameters: 2 min post injection
endpoint: Biodistribution in rats: Spleen (% dose/g)

[
  {
    "molecule": "CCOCCN1CC[P](CCCOC)(CCCOC)[99Tc+]2(#[N])([S]C(N(CCOCC)C(C)C)=[S]2)[P](CCCOC)(CCCOC)CC1 [[^99mTc(N) (PNP5) (ISOET)]^+]",
    "recorded-result": 1.11
  },
  {
    "molecule": "CCOCCN1CC[P](CCCOC)(CCCOC)[99Tc+]2(#[N])([S]C(N(CCOCC)CCOCC)=[S]2)[P](CCCOC)(CCCOC)CC1 [[^99mTc(N) (PNP5) (DBODC)]^+]",
    "recorded-result": 2.68
  }
]
